# Test system: Mus musculus
# assay_notes: Neuroleptic activity in po dosed STD-ddY mouse assessed as inhibition of spontaneous motor activity by measuring number of revolution of cage for 5 mins
# Type: functional
Note to self: ED50 under 1 mg/kg means yes, ties and anything higher get no.

Confirm or reject: ED50 of "CCc1nc2ccccc2n1C1CCN(CCCC(=O)c2ccc(F)cc2)CC1.Cl" lies strictly below 1 mg/kg
no

Bench note: check whether "O=C(CCCN1CCC(n2cnc3ccccc32)CC1)c1ccc(F)cc1" shows ED50 below 1 mg/kg
no

Threshold test, ED50 < 1 mg/kg: "Cl.Cn1c(=S)n(C2CCN(CCCC(=O)c3ccc(F)cc3)CC2)c2ccccc21"
yes

Lab note: confirm whether the reported ED50 for this molecule is below 1 mg/kg, equality not counting. molecule: "O=C(CCCN1CCC(n2c(SCCO)nc3ccccc32)CC1)c1ccc(F)cc1"
no

---

# Test system: Mus musculus
# assay_notes: Neuroleptic activity in po dosed STD-ddY mouse assessed as inhibition of spontaneous motor activity by measuring number of revolution of cage for 5 mins
# Assay type: functional
Assignment: determine reported ED50 for the given compounds.
Write the number in mg/kg without appending the unit.

Please give the measured ED50 for this compound: "OCCSc1nc2ccccc2n1C1CCN(CCCC(c2ccc(F)cc2)c2ccc(F)cc2)CC1"
40

Which measured ED50 value corresponds to "CCOC(=O)Sc1nc2ccccc2n1C1CCN(CCCC(=O)c2ccc(F)cc2)CC1" ?
0.36

Quick check: ED50 of "Br.CC(C)Sc1nc2ccccc2n1C1CCN(CCCC(=O)c2ccc(F)cc2)CC1" ?
4.4

Entry "Br.C=CCn1c(=S)n(C2CCN(CCCC(=O)c3ccc(F)cc3)CC2)c2ccccc21" : reported ED50 = ?
0.87

---

# Tested on: Rattus norvegicus
# assay_notes: Toxicity in po dosed albino Wistar rat assessed as induction of catalepsy after 8 hrs
# Format: organism-based
# recorded_conditions: in vivo
Would you mind telling me the reported ED50 of each entry?
The figure you give is taken to be in mg/kg; do not add the unit.

Sample "O=C(CCCN1CCC(n2c(=S)[nH]c3ccccc32)CC1)c1ccc(F)cc1" — what was its ED50?
0.33

For the molecule shown here, "CSc1nc2ccccc2n1C1CCN(CCCC(=O)c2ccc(F)cc2)CC1" , give the reported ED50.
1.1

Which ED50 reading was recorded for the molecule "O=C(CCCN1CCC(n2c(O)nc3ccccc32)CC1)c1ccc(F)cc1" ?
0.92

Which value of ED50 has been reported for "O=C(CCCN1CCC(O)(c2ccc(Cl)cc2)CC1)c1ccc(F)cc1" in the records?
0.88

---

# Tested on: Mus musculus
# assay_notes: Neuroleptic activity in po dosed STD-ddY mouse assessed as inhibition of spontaneous motor activity by measuring number of revolution of cage for 5 mins
# Type: functional
parameter: ED50

Which ED50 is reported for this compound? "O=C(CCCN1CCC(O)(c2ccc(Cl)cc2)CC1)c1ccc(F)cc1"
0.8 mg/kg

Record request: ED50 value, item "O=C(CCCN1CCC(n2c(O)nc3ccccc32)CC1)c1ccc(F)cc1"
0.56 mg/kg

Find the recorded ED50 belonging to "O=C(CCCN1CCC(n2c(SCc3ccccc3)nc3ccccc32)CC1)c1ccc(F)cc1" and report it.
1.3 mg/kg

What value of measured ED50 is listed for "CSc1nc2ccccc2n1C1CCN(CCCC(c2ccc(F)cc2)c2ccc(F)cc2)CC1" ?
13 mg/kg

Any idea what ED50 was measured for "O=C(CCCN1CCC(n2nnc3ccccc32)CC1)c1ccc(F)cc1" ?
33 mg/kg

If you can, please state the reported ED50 value of "Cc1nc2ccccc2n1C1CCN(CCCC(c2ccc(F)cc2)c2ccc(F)cc2)CC1" .
40 mg/kg

GET /values?readout=ED50&item= "O=C(CCCN1CCC(n2c(=S)[nH]c3ccccc32)CC1)c1ccc(F)cc1"
0.6 mg/kg

// query ED50 value for entry "C#CCSc1nc2ccccc2n1C1CCN(CCCC(=O)c2ccc(F)cc2)CC1.Cl"
1.2 mg/kg
